# system.under.test: NPY2 receptors (Homo sapiens, UniProt P49146)
# Construct: Cell Membranes from KAN-TS cells having NPY2 receptors; endogenous in cells; host or cells: KAN-TS cells (membranes)
# Sequence (P49146 whole entry): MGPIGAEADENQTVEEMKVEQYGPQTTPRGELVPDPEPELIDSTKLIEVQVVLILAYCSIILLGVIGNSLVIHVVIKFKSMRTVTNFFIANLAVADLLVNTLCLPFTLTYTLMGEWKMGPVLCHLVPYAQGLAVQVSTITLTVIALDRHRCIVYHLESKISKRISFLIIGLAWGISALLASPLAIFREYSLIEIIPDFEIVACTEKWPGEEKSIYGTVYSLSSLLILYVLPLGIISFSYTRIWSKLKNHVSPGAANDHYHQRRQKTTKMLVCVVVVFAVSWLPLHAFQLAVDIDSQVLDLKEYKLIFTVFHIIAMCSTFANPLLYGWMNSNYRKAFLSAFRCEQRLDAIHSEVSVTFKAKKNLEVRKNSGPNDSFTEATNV
# measurement.protocol: Neuropeptide Y receptor binding assay (125I-PYY, KAN-TS cell membranes)
# setup.conditions: 10 μM compound; read-out: NPY-2@10, % Inh
parameter: inhibition at 10 µM (%)
Express your answer in %, writing the number without its unit.

## Input Form field: reported inhibition at 10 µM of COC(=O)C(Cc1ccccc1)NC(=S)N1CCC(n2c(=O)[nH]c3ccccc32)CC1 (stereo not drawn) [Compound 40]
## Output 17

## Input Same question, O=c1[nH]c2ccccc2n1C1CCN(C(=S)NCCc2ccc(Cl)cc2)CC1 [Compound 2] this time
## Output 1

## Input Same question, O=c1n(CCCN2CCCCC2)c2ccccc2n1C1CCN(C(=S)NCc2cccc3ccccc23)CC1 [Compound 112] this time
## Output 55

## Input Same question, O=c1n(Cc2ccccc2)c2ccccc2n1C1CCN(C(=S)NCCc2ccc(Cl)cc2)CC1 [Compound 39] this time
## Output 18

## Input Same question, NCCCn1c(=O)n(C2CCN(C(=O)NC(c3ccccc3)c3ccccc3)CC2)c2ccccc21 [Compound 77] this time
## Output 10

## Input Same question, CN(C)c1ccc(CNC(=S)N2CCC(n3c(=O)[nH]c4ccccc43)CC2)cc1 [Compound 24] this time
## Output 12

## Input Same question, O=c1[nH]c2ccccc2n1C1CCN(C(=S)NCc2cccnc2)CC1 [Compound 29] this time
## Output 11

## Input Same question, O=C(NC(c1ccccc1)c1ccccc1)N1CCC(n2c(=O)[nH]c3ccccc32)CC1 [Compound 75] this time
## Output 12

## Input Same question, CC1CCN(CCCn2c(=O)n(C3CCN(C(=O)NC(c4ccccc4)c4ccccc4)CC3)c3ccccc32)CC1 [Compound 99] this time
## Output 29
